# credit: ChEMBL document CHEMBL1122891

Test system: Rattus norvegicus
protocol: Percent reduction in swelling of the left hind paw in rat determined in adjuvant arthritis test, 50 mg/kg dose perorally
Type: functional
settings: route oral
assay metric: Reduction (%)
Please state the figure in %; there is no need to write the unit.

Given the compound CNc1cc(Cl)cc(Cl)c1Oc1ccccc1CC(=O)OC , write its reported Reduction.
36

Given the compound Cc1ccc2c(c1)NCCc1ccccc1O2 , write its reported Reduction.
0

Given the compound Cc1cc(Cl)cc2c1Oc1ccccc1CCN2 , write its reported Reduction.
32

Given the compound Clc1ccc2c(c1)Oc1c(Cl)cccc1NCC2 , write its reported Reduction.
10

Given the compound Fc1cccc2c1Oc1ccccc1CCN2 , write its reported Reduction.
0

Given the compound O=C(O)Cc1ccccc1Oc1ccccc1[N+](=O)[O-] , write its reported Reduction.
1

Others:
Given the compound NC(=O)Cc1ccccc1Oc1c(Cl)cccc1[N+](=O)[O-] , write its reported Reduction.
36

* * *

Species on record: Rattus norvegicus
protocol: Activity relative to fenclofenac determined in adjuvant arthritis test
Type: functional
assay metric: Relative potency
The answer should be written as a number, with no unit following it.

Given the molecule CNc1cc(Cl)cc(Cl)c1Oc1ccccc1CC(=O)O , write its reported Relative potency.
13

Given the molecule Nc1cc(C(F)(F)F)ccc1Oc1ccccc1CC(=O)O , write its reported Relative potency.
2.1

Given the molecule Nc1cc(Cl)c(Cl)c(Cl)c1Oc1ccccc1CC(=O)O , write its reported Relative potency.
8.2

Given the molecule Clc1cccc2c1Oc1ccccc1CCN2 , write its reported Relative potency.
0.2

Given the molecule O=C(O)Cc1ccccc1Oc1cc(Cl)cc(Cl)c1[N+](=O)[O-] , write its reported Relative potency.
2.9

Given the molecule O=C(O)Cc1ccccc1Oc1c(Cl)cccc1[N+](=O)[O-] , write its reported Relative potency.
2

Given the molecule C[N+]1([O-])CCc2ccccc2Oc2c(Cl)cc(Cl)cc21 (centres undefined) , write its reported Relative potency.
2.2

Given the molecule Cc1cccc(N(C)C)c1Oc1ccccc1CC(=O)O , write its reported Relative potency.
2.1

Others:
Given the molecule Cc1cc(N)c(Oc2ccc(Cl)cc2CC(=O)O)c(Cl)c1 , write its reported Relative potency.
1.4

* * *

Organism: Rattus norvegicus
protocol: Activity relative to fenclofenac determined in adjuvant arthritis test
Format: functional
Measured Relative potency, listed per entry.

The cases that follow already have their Relative potency on record.
Given the compound Nc1c(Cl)c(Cl)cc(Cl)c1Oc1ccccc1CC(=O)O , write its reported Relative potency.
11.6

Given the compound COC(=O)Cc1ccccc1Oc1c(Cl)cc(Cl)cc1N(C)C , write its reported Relative potency.
2.7

Given the compound NC(=O)Cc1ccccc1Oc1c(Cl)cccc1[N+](=O)[O-] , write its reported Relative potency.
1.1

Given the compound Nc1cccc(Cl)c1Oc1ccccc1CC(=O)O , write its reported Relative potency.
3.5

Given the compound Nc1cc(Cl)cc(Cl)c1Oc1ccccc1CC(=O)O , write its reported Relative potency.
6.8

Others:
Given the compound NNC(=O)N1CCc2ccccc2Oc2c(Cl)cc(Cl)cc21 , write its reported Relative potency.
0.6

* * *

Organism: Rattus norvegicus
protocol: Activity relative to fenclofenac determined in adjuvant arthritis test
Format: functional
Measured Relative potency, listed per entry.
The answer should be written as a number, with no unit following it.

The cases that follow already have their Relative potency on record.
Given the compound COC(=O)Cc1ccccc1Oc1c(N)cc(Cl)cc1Cl , write its reported Relative potency.
7.5

Given the compound CNc1cccc(C)c1Oc1ccccc1CC(=O)O , write its reported Relative potency.
6.5

Others:
Given the compound Cc1cccc(N)c1Oc1ccccc1CC(=O)O , write its reported Relative potency.
1.9

Given the compound CCOC(=O)N1CCc2ccccc2Oc2c(Cl)cc(Cl)cc21 , write its reported Relative potency.
0.5

Given the compound Cc1cc(Cl)cc(N)c1Oc1ccccc1CC(=O)O , write its reported Relative potency.
5.6

Given the compound Nc1c(Cl)cc(Cl)cc1Oc1ccccc1CC(=O)O , write its reported Relative potency.
6.6

Given the compound CCCN1CCc2ccccc2Oc2c(Cl)cc(Cl)cc21 , write its reported Relative potency.
0.6
